Target: human proteinase 3 (Homo sapiens)
Construct: purchased Elastin Products Company, USA
Sequence (P24158 28-248): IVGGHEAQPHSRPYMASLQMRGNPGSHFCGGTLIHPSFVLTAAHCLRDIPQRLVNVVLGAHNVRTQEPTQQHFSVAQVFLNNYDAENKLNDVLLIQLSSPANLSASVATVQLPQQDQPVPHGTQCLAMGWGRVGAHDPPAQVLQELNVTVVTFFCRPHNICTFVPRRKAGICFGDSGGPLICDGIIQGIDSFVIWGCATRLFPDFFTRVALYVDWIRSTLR
Measurement Description: Inhibition of human proteinase 3 (substrate Boc-Ala-Ala-Nva-SBzl)
Format: biochemical
Cond: ratio of hPr3 IC50 to hNE IC50
Where a SMILES comes first, the peptide text is derived from it. [ ]: non-standard residue; d: D form. Oic = O=C(O)[C@@H]1C[C@@H]2CCCC[C@@H]2N1; Gly(octyl) = CCCCCCCC[C@H](N)C(=O)O; AllylGly = C=CC[C@H](N)C(=O)O
Measured Property: hNE/hPr3 selectivity

- Molecule: "CC[C@H](C)[C@@H]1NC(=O)[C@H](CO)NC(=O)[C@H](C)NC(=O)[C@H]([C@@H](C)O)NC(=O)[C@H](CCC(=O)O)NC(=O)[C@H](CCCNC(=N)N)NC(=O)[C@@H]2CCCN2C(=O)[C@H]2CCCN2C(=O)[C@H]([C@@H](C)O)NC(=O)[C@H](CCCCN)NC(=O)[C@H](CCC(N)=O)NC(=O)[C@@H]2C[C@@H]3CCCC[C@@H]3N2C(=O)[C@@H]2CCCN2C1=O [Example 16] (cyclo(RETASIP[Oic]QKT[dP]P))"
  hNE/hPr3 selectivity: ">6667"
- Molecule: "CCCCCCCC[C@@H]1NC(=O)[C@@H]2CCCN2C(=O)[C@H]2CCCN2C(=O)[C@H]([C@@H](C)O)NC(=O)[C@H](CCCCN)NC(=O)[C@H](CCC(N)=O)NC(=O)[C@@H]2CCCN2C(=O)[C@@H]2CCCN2C(=O)[C@H]([C@@H](C)CC)NC(=O)[C@H](CO)NC(=O)[C@H](C)NC(=O)[C@H]([C@@H](C)O)NC(=O)[C@H](Cc2ccccc2)NC1=O [Example 13] (cyclo([Gly(octyl)]FTASIPPQKT[dP]P))"
  hNE/hPr3 selectivity: ">9901"

Which value of hNE/hPr3 selectivity has been reported for C=CC[C@@H]1NC(=O)[C@H]([C@@H](C)O)NC(=O)[C@H](CCC(=O)O)NC(=O)[C@H](CCC(=O)N[C@@H](Cc2ccccc2)C(=O)O)NC(=O)[C@@H]2CCCN2C(=O)[C@H]2CCCN2C(=O)[C@H]([C@@H](C)O)NC(=O)[C@H](CCCCN)NC(=O)[C@H](CCC(N)=O)NC(=O)[C@@H]2CCCN2C(=O)[C@@H]2CCCN2C(=O)[C@H]([C@@H](C)CC)NC(=O)[C@H](CO)NC1=O [Example 19] (cyclo(E(Phe)ET[AllylGly]SIPPQKT[dP]P)) in the records?
>3030
